Hello, the source for this data is PubChem BioAssay AID1737, in case you need it.

- target_of_assay: Solute carrier family 12 member 5 (Homo sapiens)
- assay_text: modulation of KCC2-mediated Tl+ flux in HEK cells – cell-based, HEK293-KCC2, thallium flux, FluoZin2, sodium-free, assay 3, dose response (AID 1737)
- test_parameters: HEK293-KCC2, thallium flux FluoZin2 fluorescence, Na-free
Records with an inconclusive call do not appear. Activity calls are given as the source filed them.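 How the source made its calls: active means converged dose curve in at least two of three replicates, even with few points beside the midpoint; inactive means the rest, inconclusive results apart.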
Allowed answers: Yes (active), No (inactive)

Reference set (5 entries):
Tell me the recorded outcome of this test for O=c1c2ccccc2[nH]c(=S)n1CCN1CCC(=C(c2ccc(F)cc2)c2ccc(F)cc2)CC1 . No

Tell me the recorded outcome of this test for O=C(NC(=S)Nc1ccc2c(c1)OCO2)c1ccc(Cl)cc1 . No

Tell me the recorded outcome of this test for O=C(NC(=S)Nc1cccc2cccnc12)c1cccs1 . No

Tell me the recorded outcome of this test for CCOc1cccc(C(=O)NC(=S)Nc2cccc(C)c2)c1 . No

Tell me the recorded outcome of this test for NC(=S)N=Nc1c(O)n(Cc2ccccc2)c2ccccc12 . No

Pending compound:
Tell me the recorded outcome of this test for Cc1onc(-c2ccccc2Cl)c1C(=O)NC(=S)Nc1ccc(C(C)C)cc1 . No

* * *

- target_of_assay: UniProt:Q9H2X9
- Sequence (Q9H2X9 whole entry, looked up): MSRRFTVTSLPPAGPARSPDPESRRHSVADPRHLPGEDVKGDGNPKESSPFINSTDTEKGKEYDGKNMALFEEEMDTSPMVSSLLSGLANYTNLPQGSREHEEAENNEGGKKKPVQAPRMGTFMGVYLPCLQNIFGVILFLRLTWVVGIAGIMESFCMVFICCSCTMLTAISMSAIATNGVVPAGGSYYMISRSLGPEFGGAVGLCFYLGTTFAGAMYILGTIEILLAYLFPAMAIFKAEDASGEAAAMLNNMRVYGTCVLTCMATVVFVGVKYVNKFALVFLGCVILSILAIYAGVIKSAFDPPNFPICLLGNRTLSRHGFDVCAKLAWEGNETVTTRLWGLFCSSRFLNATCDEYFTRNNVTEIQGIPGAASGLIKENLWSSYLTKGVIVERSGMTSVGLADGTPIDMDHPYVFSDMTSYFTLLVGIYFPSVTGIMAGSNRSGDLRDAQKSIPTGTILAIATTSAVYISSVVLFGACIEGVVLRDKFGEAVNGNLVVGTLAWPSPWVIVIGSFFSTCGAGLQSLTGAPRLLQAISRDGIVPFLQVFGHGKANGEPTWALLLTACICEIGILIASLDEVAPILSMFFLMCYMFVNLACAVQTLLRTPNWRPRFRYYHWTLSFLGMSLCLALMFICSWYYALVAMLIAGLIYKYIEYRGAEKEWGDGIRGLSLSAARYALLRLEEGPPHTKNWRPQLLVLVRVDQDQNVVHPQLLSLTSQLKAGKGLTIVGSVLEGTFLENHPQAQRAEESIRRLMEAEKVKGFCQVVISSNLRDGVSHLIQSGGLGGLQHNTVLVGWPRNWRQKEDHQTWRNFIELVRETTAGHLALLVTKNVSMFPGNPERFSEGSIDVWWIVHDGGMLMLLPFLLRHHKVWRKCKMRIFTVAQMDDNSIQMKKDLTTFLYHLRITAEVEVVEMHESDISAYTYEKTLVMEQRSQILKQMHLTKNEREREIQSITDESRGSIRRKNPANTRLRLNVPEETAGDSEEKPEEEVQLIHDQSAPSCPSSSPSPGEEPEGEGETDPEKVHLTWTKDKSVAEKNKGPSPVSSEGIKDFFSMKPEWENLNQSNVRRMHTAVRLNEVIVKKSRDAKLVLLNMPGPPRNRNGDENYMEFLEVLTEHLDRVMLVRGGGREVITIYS
- assay_text: modulation of KCC2-mediated Tl+ flux in HEK cells – cell-based, HEK293-KCC2, thallium flux, FluoZin2, sodium-free, assay 3, dose response (AID 1737)
- test_parameters: HEK293-KCC2, thallium flux FluoZin2 fluorescence, Na-free
Records with an inconclusive call do not appear. Calls of active or inactive are those of the source.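 How the source made its calls: active means converged dose curve in at least two of three replicates, even with few points beside the midpoint; inactive means the rest, inconclusive results apart.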
Allowed answers: true (active), false (inactive)

Tell me the recorded outcome of this test for O=[N+]([O-])c1ccc(-c2cn(-c3ccccc3F)c(=S)[nH]2)cc1 . true

Tell me the recorded outcome of this test for COc1cccc(/C=c2\s/c(=C/C(=O)c3ccc(C)cc3)[nH]c2=O)c1OC . false

Tell me the recorded outcome of this test for COc1ccc(N2C(=S)N=C(Nc3cccc(C)c3)C23CCCCC3)cc1 . true

Tell me the recorded outcome of this test for Fc1cccc(F)c1/C=N/NC(=S)Nc1cccnc1 . false

Tell me the recorded outcome of this test for CC(=O)c1cccc(NC(=S)NC(=O)c2ccc(C)cc2)c1 . true

Tell me the recorded outcome of this test for Cc1ccc(-c2n[nH]c(=S)n2/N=C/C=C\c2ccccc2[N+](=O)[O-])cc1 . false

Tell me the recorded outcome of this test for COc1ccc(-c2nnc(-c3ccc(OCC(C)C)cc3)o2)cc1 . false

Continuing:
Tell me the recorded outcome of this test for O=[N+]([O-])c1ccccc1/C=C/C=N/n1c(-c2ccc(Cl)cc2)n[nH]c1=S . false
